The reported numbers originate from the supplement of paper PMC10567573.

Experiment summary: protein stability index of a GFP-peptide fusion (GPS, HEK-293T) (PSI 1-6); higher = more stable;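 further: 24-mer peptide tiles fused after GFP, lentivirally expressed, FACS-sorted into six equal bins by GFP/DsRed ratio, decoded by Illumina sequencing, PSI is the read-weighted mean bin number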
Stated conditions: treatment: MLN4924 1 uM, 8 h; c terminus: a fixed tail appended
Parameter: protein stability index
I only need the number, thanks.

[
  {
    "Entry sequence": "HSQFIGYPITLYLEKEREKEISDD [HSP90AB1]",
    "protein stability index": 3.9
  },
  {
    "Entry sequence": "SLCSLLESQSTSLRGSYNSLHDGS [LURAP1L]",
    "protein stability index": 2.87
  },
  {
    "Entry sequence": "RPGVQDAALIEAIQDRLSNTLQTY [VDR]",
    "protein stability index": 3.09
  },
  {
    "Entry sequence": "EKLATDTSTFEATSEGTLELQQRN [ZNF232]",
    "protein stability index": 5.41
  },
  {
    "Entry sequence": "LPSPVQACSEDSLFLRCSLRHKDE [DRICH1]",
    "protein stability index": 4.48
  }
]

Request: Supply recorded protein stability index for TPPTPAPTSGIVGALMEVMQKRSK [WASL] here.
Response: 4.65

Request: Look up protein stability index of REAEKQNYLAEHCPPLHIPGSMSE [TNNI2] and report it.
Response: 4.72

Request: Report measured protein stability index; entry is DAVTAALLIPKEDGVITASEDRTI [WDFY1]
Response: 4.86

Request: Recall and state the measured protein stability index for LKQAKELDRERAAANEQLTRAILR [CHCHD3] .
Response: 3.81

Request: Determine its reported protein stability index: MAQTVPPCELPCKEYDVARNTGAY [TEKT4]
Response: 4.08

Request: Give the reported value of protein stability index for this record: LRQAQQNMDPKAAEEEEEEEEEVD [CCND1]
Response: 5.56

Request: Determine its reported protein stability index: TEMIITKAGRRMFPACRVSVTGLD [TBX6]
Response: 2.2

Request: Give the reported protein stability index for this sequence. MLGKYGSSLEFTELLTLVNRKVSQ [CASP6]
Response: 2.34

Request: Query protein stability index for LTGLFKGDKCHSLVGKPKIFIIQA [CASP6]
Response: 2.93

---

Experiment summary: protein stability index of a GFP-peptide fusion (GPS, HEK-293T) (PSI 1-6); higher = more stable
Stated conditions: treatment: DMSO; c terminus: a fixed tail appended
Below, each entry is listed alongside its reported protein stability index.
Number only, no unit.

[
  {
    "Entry sequence": "MTPAEAEMHFLENAKKLSMYGVDL [EPB41L3]",
    "protein stability index": 3
  },
  {
    "Entry sequence": "VLELHHSKLDTTKALNLLPANTQI [VPS39]",
    "protein stability index": 3.03
  }
]

Okay, now this sequence:
Request: Using the record for AGSSTWERYFIPVSCFLTFNIFDW [SLC29A1] , state its measured protein stability index.
Response: 3.09

---

Experiment summary: protein stability index of a GFP-peptide fusion (GPS, HEK-293T) (PSI 1-6); higher = more stable
Stated conditions: treatment: DMSO; c terminus: a fixed tail appended
Parameter: protein stability index
Lab note: jot down the number only; don't add units.

Request: Return reported protein stability index. Input sequence: LEPLSLPESPGGTTTLEGSPSVPC [ZNF277]
Response: 5.22

Request: Return protein stability index for the following sequence: EEKQASLWVQGDIFRSKLKNRPSS [CDC14A]
Response: 3.89

Request: Identify the reported protein stability index for the following entry. MIQTSKTEITELRRTLQGLEIELQ [KRT13]
Response: 3.02

Request: Consider the sequence ADEQLHCAGKAKRSGGHAPRVREL [ESR2] and give its recorded protein stability index.
Response: 4.45

Request: Please indicate protein stability index recorded for KRAESDSRKSSIPNNKEIPSHHPT [PTPRD]
Response: 5.15

---

Experiment summary: protein stability index of a GFP-peptide fusion (GPS, HEK-293T) (PSI 1-6); higher = more stable
Stated conditions: treatment: MLN4924 1 uM, 8 h; c terminus: a fixed tail appended
Parameter: protein stability index
Number, no unit, nothing else.

[
  {
    "Entry sequence": "ESFILDQDDLENPMLETASKLLLS [ANKRD17]",
    "protein stability index": 4.1
  },
  {
    "Entry sequence": "NSDLNNLLFCCQCVDVVFYNPDLK [RHOBTB3]",
    "protein stability index": 2.59
  },
  {
    "Entry sequence": "GWCIFVYNLSPEADESVLWQLFGP [ELAVL3]",
    "protein stability index": 3.7
  },
  {
    "Entry sequence": "MSHHQEELVPKQPQKRKPQEQLLE [SLC2A12]",
    "protein stability index": 5.34
  }
]

Request: Retrieve protein stability index measured for EVLLGTPYDLAIDMWSLGCILVEM [DYRK1B] and print it.
Response: 2.96

Request: Please report the measured protein stability index for VSAQRERPRRRDGPEHATRLNGTA [DVL3]
Response: 4.81

Request: Supply reported protein stability index belonging to this sequence: IADYLLLPLAEREHVSRALCIHTG [TRIB1]
Response: 2.02

Request: Return protein stability index for the following sequence: TASKAIIEKEYQPHVIVSTTGPNP [ADD1]
Response: 4.65

---

Property: protein stability index; scope: individual sequences
Experiment summary: protein stability index of a GFP-peptide fusion (GPS, HEK-293T) (PSI 1-6); higher = more stable
Stated conditions: treatment: DMSO; c terminus: a fixed tail appended
Number only, please.

Recorded results for 5 sequences are shown here.
[
  {
    "Entry sequence": "IYLLRRQIRTVIQYQTVRYDILPL [CTDNEP1]",
    "Result number": 2.94
  },
  {
    "Entry sequence": "RDDLDRLGVFLDYEAGVLAFYDVT [TRIM14]",
    "Result number": 2.55
  },
  {
    "Entry sequence": "LEGYRDNAYKDLAWKHGNIHLSAP [PCMTD1]",
    "Result number": 2.99
  },
  {
    "Entry sequence": "LAEMKDDSDSEKQQQIHHIKNLYA [VPS39]",
    "Result number": 4.16
  },
  {
    "Entry sequence": "QPTIVEALLGYEMVQVACGASHVL [NEK8]",
    "Result number": 2.75
  }
]

Request: Give protein stability index for PTRCLPGHKEEEDGEGAGPGEQGG [ESRRA]
Response: 5.68

Request: Note down protein stability index recorded for VKWLSFHSGYDFGYLIKILTNSNL [CNOT7]
Response: 2.58

---

Experiment summary: protein stability index of a GFP-peptide fusion (GPS, HEK-293T) (PSI 1-6); higher = more stable
Stated conditions: treatment: MLN4924 1 uM, 8 h; c terminus: a fixed tail appended
Please note: Satisfied applies when protein stability index is 3 or greater, and Not satisfied applies otherwise.

[
  {
    "Entry sequence": "DITQSIEDDPLLDAQLLPHHSLQA [TMEM192]",
    "Category": "Satisfied"
  },
  {
    "Entry sequence": "CAVLDDSIYLVGGYSWSMGAYKSS [KLHL14]",
    "Category": "Not satisfied"
  },
  {
    "Entry sequence": "MDLKTAVFNAARDGKLRLLTKLLA [FEM1C]",
    "Category": "Not satisfied"
  },
  {
    "Entry sequence": "AILYYYQSGGRLRRPVNVPLDMFS [KCNA1]",
    "Category": "Not satisfied"
  },
  {
    "Entry sequence": "CRFNQDPEAVDEDRSTEPDRLQVF [ATE1]",
    "Category": "Satisfied"
  },
  {
    "Entry sequence": "LGSAGAQYEKYSFRGFPPEDLMPL [P3H4]",
    "Category": "Not satisfied"
  }
]

Request: Does RSEEAVQVLIKHSADVNARDKNWQ [ANKRD44] have a reported protein stability index of at least 3?
Response: Satisfied

---

Experiment summary: protein stability index of a GFP-peptide fusion (GPS, HEK-293T) (PSI 1-6); higher = more stable
Stated conditions: treatment: DMSO; c terminus: a fixed tail appended
Classification field: 1 = protein stability index at or over 4; -1 = protein stability index under 4.

Request: Kindly determine if protein stability index recorded for QAALQKQQEVVVAGSSLPTSSKVN [ACBD3] is above or exactly 4.
Response: 1

Request: Given LIQPQDQSCWAFLPDLCLCRVFWW [FBXO39] , state whether its protein stability index is at least 4.
Response: -1

Request: Check the entry AESLKGKLEEERAKLHDVELHQVA [GNB5] : does protein stability index equal or exceed 4?
Response: 1

Request: Has SSSSLGNKLQTLSPSHKGIAAPHA [ZC2HC1A] a recorded protein stability index greater than or equal to 4?
Response: -1

Request: I'd appreciate it if you could say whether AKKFRKAVTDLLGRRQRKSEKRRD [WASL] has protein stability index at least equal to 4.
Response: -1

Request: Exam item: decide whether the reported protein stability index for LNRATQSIERSHRIATETDQIGSE [VTI1B] is at least 4.
Response: 1

Request: Reported protein stability index reaches at least 4 for VMLKRIHSLYRRTGASFQKAQQEF [SCAMP3] ?
Response: -1

Request: Is reported protein stability index greater than or equal to 4 here: RKLLSPVSREENREDKATIKCETS [PPFIA4]
Response: 1

Request: Entry VLLHGPPGTGKTSLCKALAQKLTI [TRIP13] : is its protein stability index no less than 4?
Response: -1
